System: A549
Assay Explanation: Cytotoxicity against human A549 cells after 72 hrs by MTT assay
Format: functional, cell-based
Reported Conditions: A549, 72 h
Assay Metric: IC50
Returns: string containing the numeric result and its unit.

[
  {
    "Molecule Smiles": "Brc1ccc(-c2nc3c4cccnc4c4ncccc4c3[nH]2)cc1",
    "IC50": "0.85 µM"
  },
  {
    "Molecule Smiles": "COc1ccc(-c2nc3c4cccnc4c4ncccc4c3[nH]2)cc1",
    "IC50": "1.36 µM"
  },
  {
    "Molecule Smiles": "CCCCOc1ccc(-c2nc3c4cccnc4c4ncccc4c3[nH]2)cc1",
    "IC50": "35.5 µM"
  }
]

Reported IC50 for A549, given "FC(F)(F)c1ccc(-c2nc3c4cccnc4c4ncccc4c3[nH]2)cc1" ? 1.73 µM

* * *

Assay Explanation: Cytotoxicity against human HO8910 cells after 72 hrs by MTT assay
Type: functional, cell-based
Reported Conditions: HO-8910, 72 h
Assay Metric: pIC50
Friendly reminder that pIC50 comes from taking -log10 of the concentration in mol/L.

Which measured pIC50 value corresponds to "Brc1ccc(-c2nc3c4cccnc4c4ncccc4c3[nH]2)cc1" ? 5.81

src = ChEMBL document CHEMBL1933059
